Molecular target: Adenosine receptor A2b (Homo sapiens, UniProt P29275)
Sequence (P29275 whole entry): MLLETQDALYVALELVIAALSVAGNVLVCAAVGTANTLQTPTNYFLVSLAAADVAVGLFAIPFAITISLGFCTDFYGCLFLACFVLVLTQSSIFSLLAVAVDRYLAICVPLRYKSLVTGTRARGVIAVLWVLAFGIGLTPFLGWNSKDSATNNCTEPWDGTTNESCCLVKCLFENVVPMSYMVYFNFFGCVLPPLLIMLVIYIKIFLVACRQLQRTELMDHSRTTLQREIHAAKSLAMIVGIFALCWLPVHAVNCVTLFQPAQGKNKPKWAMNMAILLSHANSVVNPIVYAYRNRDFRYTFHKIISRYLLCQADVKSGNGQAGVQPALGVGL
Assay: Displacement of [3H]-MRS-1754 from human adenosine receptor A2b expressed in HEK293 cell membranes after 90 mins by liquid scintillation counting method
Readout label: Ki

{"columns": ["Molecule", "Assayed target", "Ki"],
 "data": [
  ["CCCn1c(=O)c2[nH]c(-c3cnn(CC4CC(=O)N(c5cccc(C(F)(F)F)c5)C4)c3)nc2n(CCC)c1=O (centres undefined)", "Adenosine receptor A2b (Homo sapiens, UniProt P29275)", "6.5 nM"]
]}

Looking up CCCn1c(=O)c2[nH]c(-c3cnn(CC4CCN(c5ccc(C)cc5)C4)c3)nc2n(CCC)c1=O (centres undefined) , I found its Ki recorded as 12 nM

Noted for CCCn1c(=O)c2[nH]c(-c3ccc(OCC4CC(=O)N(c5cccc(F)c5)C4)cc3)nc2n(CCC)c1=O (centres undefined) : its Ki reads 9 nM

Reported Ki of CCCn1c(=O)c2[nH]c(-c3cnn(CC(=O)N4CCN(c5ccc(C)cc5)CC4)c3)nc2n(CCC)c1=O : 5 nM

---

Molecular target: UniProtKB P29275
Assay: Antagonist activity at human adenosine receptor A2b expressed in HEK293 cells assessed as inhibition of NECA-induced cAMP level preincubated for 15 mins followed by NECA stimulation for 15 mins by HTRF assay
Type: functional, cell-based
Readout label: pKi
By convention, pKi is the negative base-10 log of a molar concentration.

Example results:
{"columns": ["Molecule", "Readout label", "Test result"],
 "data": [
  ["CCCn1c(=O)c2[nH]c(-c3ccc(OCC4CC(=O)N(c5ccc(C(F)(F)F)cc5)C4)nc3)nc2n(CCC)c1=O (stereo not drawn)", "pKi", 7.15],
  ["CCCn1c(=O)c2[nH]c(-c3cnn(CC4CC(=O)N(c5ccc(C(F)(F)F)cc5)C4)c3)nc2n(CC)c1=O (stereo not drawn)", "pKi", 8.10],
  ["CCCn1c(=O)c2[nH]c(-c3cnn(CC4CC(=O)N(c5ccc(C(F)(F)F)cc5)C4)c3)nc2n(CCC)c1=O (stereo not drawn)", "pKi", 9.05],
  ["CCCn1c(=O)c2[nH]c(-c3cnn(CC4CCN(c5ccc(OC(F)(F)F)cc5)C4=O)c3)nc2n(CCC)c1=O (stereo not drawn)", "pKi", 6.72],
  ["CCCn1c(=O)c2[nH]c(-c3cnn(CC4CC(=O)N(c5ccc(OC)cc5)C4)c3)nc2n(CC)c1=O (stereo not drawn)", "pKi", 7.85]
]}

Lab note: measured pKi of CCCn1c(=O)c2[nH]c(-c3cnn(CC4CC(=O)N(c5ccc(F)cc5)C4)c3)nc2n(CC)c1=O (stereo not drawn) was 8.40

# pKi (molecule: CCCn1c(=O)c2[nH]c(-c3cnn(CC(=O)N4CCN(c5cccc(C(F)(F)F)c5)CC4)c3)nc2n(CCC)c1=O ) is 8.40

Form field pKi, entry CCCn1c(=O)c2[nH]c(-c3cc(OCC4CC(=O)N(c5ccc(C(F)(F)F)cc5)C4)no3)nc2n(CCC)c1=O (stereo not drawn) : 6.27

---

Assay: Cmax in C57BL/6J mouse at 10 mg/kg, po via gavage by LC-MS/MS analysis
Assay type: ADME, organism-based
Set-up: dose 10 mg/kg, route oral
Settings: in vivo
# Cmax per record follows

Worked cases, Cmax given:
{"columns": ["Compound", "Cmax"],
 "data": [
  ["CCCn1c(=O)c2[nH]c(-c3cnn(CC(=O)N4CCN(c5cccc(C(F)(F)F)c5)CC4)c3)nc2n(CCC)c1=O", "44 µM"],
  ["CCCn1c(=O)c2[nH]c(-c3cnn(CC4CC(=O)N(c5ccc(C(F)(F)F)cc5)C4)c3)nc2n(CCC)c1=O (stereo not drawn)", "16.7 µM"]
]}

Now look at this one.
Query CCCn1c(=O)c2[nH]c(-c3cnn(CC4CC(=O)N(c5ccc(C(F)(F)F)cc5)C4)c3)nc2n(CC)c1=O (stereo not drawn) yields Cmax of 3.8 µM

---

molecules and their reported Drug metabolism
Tested on: Liver
Assay: Metabolic stability in mouse liver microsomes assessed as metabolic rate per mg protein preincubated for 5 mins followed by NADPH addition measured up to 30 mins by LC-MS/MS analysis
Assay type: ADME, microsome
Conditions: 0.5 h
Quick reminder: number only, in nmol/min/mg, skip the unit.

{"columns": ["Molecule", "Drug metabolism, nmol/min/mg"],
 "data": [
  ["CCCn1c(=O)c2[nH]c(-c3cnn(CC4CC(=O)N(c5cccc(C)c5)C4)c3)nc2n(CCC)c1=O (stereo not drawn)", 0.46],
  ["CCCn1c(=O)c2[nH]c(-c3cnn(CC4CCN(c5ccc(OC(F)(F)F)cc5)C4)c3)nc2n(CCC)c1=O (stereo not drawn)", 0.15]
]}

Lab note: next molecule to report on.
// Drug metabolism lookup, molecule = CCCn1c(=O)c2[nH]c(-c3cnn(CC4CC(=O)N(c5cccc(OC)c5)C4)c3)nc2n(CCC)c1=O (stereo not drawn) , result: 0.41

---

Test: Oral bioavailability in C57BL/6J mouse at 10 mg/kg via gavage by LC-MS/MS analysis
Format: ADME, organism-based
Settings: in vivo
Readout label: bioavailability
Could you give the number and then its unit, please?

Use the examples below as a reference point.
{"columns": ["Molecule", "Readout label", "Test result"],
 "data": [
  ["CCCn1c(=O)c2[nH]c(-c3cnn(CC(=O)N4CCN(c5cccc(C(F)(F)F)c5)CC4)c3)nc2n(CCC)c1=O", "bioavailability", "65%"],
  ["CCCn1c(=O)c2[nH]c(-c3cnn(CC4CC(=O)N(c5ccc(C(F)(F)F)cc5)C4)c3)nc2n(CC)c1=O (stereo not drawn)", "bioavailability", "11%"]
]}

// moving on: another record for bioavailability
Just so you know, measured bioavailability for CCCn1c(=O)c2[nH]c(-c3cnn(CC4CC(=O)N(c5ccc(C(F)(F)F)cc5)C4)c3)nc2n(CCC)c1=O (stereo not drawn) came out at 27%

---

Reported Ki for target or system Adenosine receptor A1 (Homo sapiens, UniProt P30542), by entry.

{"columns": ["Molecule", "Ki"],
 "data": [
  ["CCCn1c(=O)c2[nH]c(-c3cnn(CC4CC(=O)N(c5ccc(OC)cc5)C4)c3)nc2n(CC)c1=O (centres undefined)", "0.711 µM"],
  ["CCCn1c(=O)c2[nH]c(-c3cnn(CC(=O)N4CCN(c5cccc(C(F)(F)F)c5)CC4)c3)nc2n(CCC)c1=O", "0.177 µM"],
  ["CCCn1c(=O)c2[nH]c(-c3ccc(OCC4CC(=O)N(c5ccc(C(F)(F)F)cc5)C4)nc3)nc2n(CCC)c1=O (centres undefined)", "> 0.8 µM"]
]}

Pending molecule:
Value of Ki reported for the molecule CCCn1c(=O)c2[nH]c(-c3cc(OCC4CC(=O)N(c5ccc(C(F)(F)F)cc5)C4)no3)nc2n(CCC)c1=O (centres undefined) is 4.2 µM

---

System: Liver
Assay: Metabolic stability in human liver microsomes assessed as metabolic rate per mg protein preincubated for 5 mins followed by NADPH addition measured up to 30 mins by LC-MS/MS analysis
Type: ADME, microsome
Details: 0.5 h
A collection of molecules and their measured Drug metabolism
Only the number, expressed in nmol/min/mg, is required.

{"columns": ["Molecule", "Unit spec", "Drug metabolism"],
 "data": [
  ["CCCn1c(=O)c2[nH]c(-c3cnn(CC(=O)N4CCN(c5cccc(C(F)(F)F)c5)CC4)c3)nc2n(CCC)c1=O", "nmol/min/mg", 0.16],
  ["CCCn1c(=O)c2[nH]c(-c3cnn(CC4CCN(c5ccc(C)cc5)C4)c3)nc2n(CCC)c1=O (centres undefined)", "nmol/min/mg", 0.66],
  ["CCCn1c(=O)c2[nH]c(-c3cnn(CC4CC(=O)N(c5cccc(OC)c5)C4)c3)nc2n(CCC)c1=O (centres undefined)", "nmol/min/mg", 0.18],
  ["CCCn1c(=O)c2[nH]c(-c3cnn(CC(O)C4CC(=O)N(c5cccc(C(F)(F)F)c5)C4)c3)nc2n(CCC)c1=O (centres undefined)", "nmol/min/mg", 0.19],
  ["CCCn1c(=O)c2[nH]c(-c3cnn(CC4CC(=O)N(c5cccc(F)c5)C4)c3)nc2n(CCC)c1=O (centres undefined)", "nmol/min/mg", 0.02]
]}

Looking up CCCn1c(=O)c2[nH]c(-c3cnn(CC4CCN(c5cccc(C(F)(F)F)c5)C4=O)c3)nc2n(CCC)c1=O (centres undefined) , I see its Drug metabolism listed as 0.2

Drug metabolism in this record for CCCn1c(=O)c2[nH]c(-c3cnn(CC4CCN(c5cccc(C(F)(F)F)c5)C4)c3)nc2n(CCC)c1=O (centres undefined) : 0.01

// sample CCCn1c(=O)c2[nH]c(-c3cnn(CC4CC(=O)N(c5ccc(F)cc5)C4)c3)nc2n(CC)c1=O (centres undefined) , its Drug metabolism was 0

Record summary for CCCn1c(=O)c2[nH]c(-c3cnn(CC4CC(=O)N(c5ccc(C(F)(F)F)cc5)C4)c3)nc2n(CCC)c1=O (centres undefined) : reported Drug metabolism = 0.02

get_value(item= CCCn1c(=O)c2[nH]c(-c3cnn(CC4CC(=O)N(c5ccc(OC(F)(F)F)cc5)C4)c3)nc2n(CCC)c1=O (centres undefined) , readout=Drug metabolism) returns 0.13

Drug metabolism for CCCn1c(=O)c2[nH]c(-c3cnn(CC4CC(=O)N(c5cccc(C(F)(F)F)c5)C4)c3)nc2n(CC)c1=O (centres undefined) is 0.12

// Drug metabolism value for CCCn1c(=O)c2[nH]c(-c3ccc(OCC4CC(=O)N(c5cccc(C(F)(F)F)c5)C4)nc3)nc2n(CCC)c1=O (centres undefined) : 0.05

CCCn1c(=O)c2[nH]c(-c3cnn(CC4CC(=O)N(c5ccc(OC)cc5)C4)c3)nc2n(CCC)c1=O (centres undefined) has a reported Drug metabolism of 0.19

Note to self: Drug metabolism recorded for CCCn1c(=O)c2[nH]c(-c3cnn(CC4CCN(c5ccc(OC)cc5)C4)c3)nc2n(CCC)c1=O (centres undefined) was 0.37

Lab note: CCCn1c(=O)c2[nH]c(-c3cnn(CC4CC(=O)N(c5ccc(F)cc5F)C4)c3)nc2n(CCC)c1=O (centres undefined) gave Drug metabolism of 0.03

The measured Drug metabolism associated with CCCn1c(=O)c2[nH]c(-c3ccc(OCC4CC(=O)N(c5ccc(C(F)(F)F)cc5)C4)nc3)nc2n(CCC)c1=O (centres undefined) reads 0.02

The recorded Drug metabolism for entry CCCn1c(=O)c2[nH]c(-c3cnn(CC(=O)N4CCN(c5ccc(F)cc5F)CC4)c3)nc2n(CCC)c1=O equals 0.11

In plain terms, CCCn1c(=O)c2[nH]c(-c3cnn(CC4CC(=O)N(c5ccc(F)cc5)C4)c3)nc2n(CCC)c1=O (centres undefined) has a documented Drug metabolism of 0.06

In plain terms, CCCn1c(=O)c2[nH]c(-c3cnn(CC4CC(=O)N(c5cccc(OC(F)(F)F)c5)C4)c3)nc2n(CC)c1=O (centres undefined) has a documented Drug metabolism of 0.4

Values were extracted from ChEMBL document CHEMBL3994582.
